Tested on: PSMA^+ PC-3 PIP tumors
Assay: MicroPET/CT imaging of mice transplanted with prostate cancer cell lines
Format: in vivo, nude mouse
Details: 10 min after injection
The entries below come with measured intake of mouse organ: Kidney values attached.
measurement.type: intake of mouse organ: Kidney

- Cc1ccc(CCCC(=O)NCCCCC(NC(=O)CN2CCN3CCN4CCN(CC2)CC(=O)[O][68Ga]([O]C(=O)C3)[O]C(=O)C4)C(=O)NCCOCCOCC(=O)N(CCCCC(NC(=O)NC(CCC(=O)O)C(=O)O)C(=O)O)CC(=O)O)cc1 (stereo not shown) [[^68Ga]1g]: 16.40 ± 0.10 % ID/g
- O=C(O)CCC(NC(=O)NC(CCCCN(CC(=O)O)C(=O)COCCOCCNC(=O)CN1CCN2CCN3CCN(CC1)CC(=O)[O][68Ga]([O]C(=O)C2)[O]C(=O)C3)C(=O)O)C(=O)O (stereo not shown) [[^68Ga]1e]: 21.37 ± 9.18 % ID/g
- O=C(O)CCC(NC(=O)NC(CCCCN(CC(=O)O)C(=O)COCCNC(=O)C(CCCCNC(=O)CCCc1ccc(I)cc1)NC(=O)CN1CCN2CCN3CCN(CC1)CC(=O)[O][68Ga]([O]C(=O)C2)[O]C(=O)C3)C(=O)O)C(=O)O (stereo not shown) [[^68Ga]1k]: 11.16 ± 1.35 % ID/g
- O=C(O)CCC(NC(=O)NC(CCCCN(CC(=O)O)C(=O)COCCOCCNC(=O)C(CCCCNC(=O)CCCc1ccc(I)cc1)NC(=O)CN1CCN2CCN3CCN(CC1)CC(=O)[O][68Ga]([O]C(=O)C2)[O]C(=O)C3)C(=O)O)C(=O)O (stereo not shown) [[^68Ga]1h]: 13.26 ± 2.36 % ID/g

----------
Overview of reported intake of mouse organ: Tumor (PIP) across a group of compounds:
Tested on: PSMA^+ PC-3 PIP tumors
Test: MicroPET/CT imaging of mice transplanted with prostate cancer cell lines
Assay type: in vivo, nude mouse
Details: 10 min after injection
measurement.type: intake of mouse organ: Tumor (PIP)

- O=C(O)CCC(NC(=O)NC(CCCCN(CC(=O)O)C(=O)COCCOCCNC(=O)C(CCCCNC(=O)CCCc1ccc(I)cc1)NC(=O)CN1CCN2CCN3CCN(CC1)CC(=O)[O][68Ga]([O]C(=O)C2)[O]C(=O)C3)C(=O)O)C(=O)O (stereo not shown) [[^68Ga]1h]: 1.94 ± 0.35 % ID/g
- O=C(O)CCC(NC(=O)NC(CCCCN(CC(=O)O)C(=O)COCCNC(=O)C(CCCCNC(=O)CCCc1ccc(I)cc1)NC(=O)CN1CCN2CCN3CCN(CC1)CC(=O)[O][68Ga]([O]C(=O)C2)[O]C(=O)C3)C(=O)O)C(=O)O (stereo not shown) [[^68Ga]1k]: 1.85 ± 0.25 % ID/g
- Cc1ccc(CCCC(=O)NCCCCC(NC(=O)CN2CCN3CCN4CCN(CC2)CC(=O)[O][68Ga]([O]C(=O)C3)[O]C(=O)C4)C(=O)NCCOCCOCC(=O)N(CCCCC(NC(=O)NC(CCC(=O)O)C(=O)O)C(=O)O)CC(=O)O)cc1 (stereo not shown) [[^68Ga]1g]: 2.18 ± 0.63 % ID/g
- O=C(O)CCC(NC(=O)NC(CCCCN(CC(=O)O)C(=O)COCCOCCNC(=O)CN1CCN2CCN3CCN(CC1)CC(=O)[O][68Ga]([O]C(=O)C2)[O]C(=O)C3)C(=O)O)C(=O)O (stereo not shown) [[^68Ga]1e]: 2.33 ± 0.36 % ID/g
